Data origin, for the record: the supplement of paper PMC8617591

# System: Mycobacterium tuberculosis Erdman (autoluminescent)
# Experimental Protocol: GRinf, maximum normalised growth rate inhibition (three-drug combination) (unitless (-1 to 1)); higher = less effect (negative = killing)
# Settings: in vitro model: dormancy (butyrate + nitrate, low O2); time point: constant (~7 days, model-specific)
Listed here: items and their measured GRinf.
Respond using a number only.

Below, each entry is followed by its recorded GRinf result.
>  <Compound>
CC[C@@H](CO)NCCN[C@@H](CC)CO [ethambutol] + NC(=O)c1cnccn1 [pyrazinamide] + CO[C@H]1/C=C/O[C@@]2(C)Oc3c(C)c(O)c4c(O)c(c(/C=N/N5CCN(C)CC5)c(O)c4c3C2=O)NC(=O)/C(C)=C\C=C\[C@H](C)[C@H](O)[C@@H](C)[C@@H](O)[C@@H](C)[C@H](OC(C)=O)[C@@H]1C [rifampicin]

>  <GRinf>
0.291

$$$$
>  <Compound>
CC[C@@H](CO)NCCN[C@@H](CC)CO [ethambutol] + NNC(=O)c1ccncc1 [isoniazid] + CO[C@H]1/C=C/O[C@@]2(C)Oc3c(C)c(O)c4c(O)c(c(/C=N/N5CCN(C)CC5)c(O)c4c3C2=O)NC(=O)/C(C)=C\C=C\[C@H](C)[C@H](O)[C@@H](C)[C@@H](O)[C@@H](C)[C@H](OC(C)=O)[C@@H]1C [rifampicin]

>  <GRinf>
0.364

$$$$

Next item in the queue.
// query So what's the measured GRinf for this one? CC(C)/N=c1\cc2n(-c3ccc(Cl)cc3)c3ccccc3nc-2cc1Nc1ccc(Cl)cc1 [clofazimine] + CC[C@@H](CO)NCCN[C@@H](CC)CO [ethambutol] + CO[C@H]1/C=C/O[C@@]2(C)Oc3c(C)c(O)c4c(O)c(c(/C=N/N5CCN(C)CC5)c(O)c4c3C2=O)NC(=O)/C(C)=C\C=C\[C@H](C)[C@H](O)[C@@H](C)[C@@H](O)[C@@H](C)[C@H](OC(C)=O)[C@@H]1C [rifampicin]
// result 0.515

###

Listed below: GRinf values for each entry.
# Test system: Mycobacterium tuberculosis Erdman (autoluminescent)
# Experimental Protocol: GRinf, maximum normalised growth rate inhibition (unitless (-1 to 1)); higher = less effect (negative = killing)
# Settings: in vitro model: cholesterol 0.05 mM; time point: constant (~7 days, model-specific)
The answer should be written as a number, with no unit following it.

>  <Compound>
CC(C)/N=c1\cc2n(-c3ccc(Cl)cc3)c3ccccc3nc-2cc1Nc1ccc(Cl)cc1 [clofazimine] + CC[C@@H](CO)NCCN[C@@H](CC)CO [ethambutol]

>  <Quantitative Readout>
-0.0623

$$$$
>  <Compound>
CC(C)/N=c1\cc2n(-c3ccc(Cl)cc3)c3ccccc3nc-2cc1Nc1ccc(Cl)cc1 [clofazimine] + CO[C@H]1/C=C/O[C@@]2(C)Oc3c(C)c(O)c4c(O)c(c(/C=N/N5CCN(C)CC5)c(O)c4c3C2=O)NC(=O)/C(C)=C\C=C\[C@H](C)[C@H](O)[C@@H](C)[C@@H](O)[C@@H](C)[C@H](OC(C)=O)[C@@H]1C [rifampicin]

>  <Quantitative Readout>
0.303

$$$$
>  <Compound>
NC(=O)c1cnccn1 [pyrazinamide] + CO[C@H]1/C=C/O[C@@]2(C)Oc3c(C)c(O)c4c(O)c(c(/C=N/N5CCN(C6CCCC6)CC5)c(O)c4c3C2=O)NC(=O)/C(C)=C\C=C\[C@H](C)[C@H](O)[C@@H](C)[C@@H](O)[C@@H](C)[C@H](OC(C)=O)[C@@H]1C [rifapentine]

>  <Quantitative Readout>
0.0214

$$$$
>  <Compound>
CC(C)/N=c1\cc2n(-c3ccc(Cl)cc3)c3ccccc3nc-2cc1Nc1ccc(Cl)cc1 [clofazimine] + NNC(=O)c1ccncc1 [isoniazid]

>  <Quantitative Readout>
-0.06

$$$$
>  <Compound>
CC[C@@H](CO)NCCN[C@@H](CC)CO [ethambutol] + O=[N+]([O-])c1cn2c(n1)OC[C@@H](OCc1ccc(OC(F)(F)F)cc1)C2 [pretomanid]

>  <Quantitative Readout>
-0.319

$$$$
>  <Compound>
NNC(=O)c1ccncc1 [isoniazid] + CO[C@H]1/C=C/O[C@@]2(C)Oc3c(C)c(O)c4c(O)c(c(/C=N/N5CCN(C)CC5)c(O)c4c3C2=O)NC(=O)/C(C)=C\C=C\[C@H](C)[C@H](O)[C@@H](C)[C@@H](O)[C@@H](C)[C@H](OC(C)=O)[C@@H]1C [rifampicin]

>  <Quantitative Readout>
0.0341

$$$$
>  <Compound>
CC[C@@H](CO)NCCN[C@@H](CC)CO [ethambutol] + NNC(=O)c1ccncc1 [isoniazid]

>  <Quantitative Readout>
-0.157

$$$$
>  <Compound>
COc1nc2ccc(Br)cc2cc1[C@@H](c1ccccc1)[C@@](O)(CCN(C)C)c1cccc2ccccc12 [bedaquiline] + CO[C@H]1/C=C/O[C@@]2(C)Oc3c(C)c(O)c4c(O)c(c(/C=N/N5CCN(C6CCCC6)CC5)c(O)c4c3C2=O)NC(=O)/C(C)=C\C=C\[C@H](C)[C@H](O)[C@@H](C)[C@@H](O)[C@@H](C)[C@H](OC(C)=O)[C@@H]1C [rifapentine]

>  <Quantitative Readout>
-0.201

$$$$

From here, focus on the item given below.
// query Using the record for COc1nc2ccc(Br)cc2cc1[C@@H](c1ccccc1)[C@@](O)(CCN(C)C)c1cccc2ccccc12 [bedaquiline] + O=[N+]([O-])c1cn2c(n1)OC[C@@H](OCc1ccc(OC(F)(F)F)cc1)C2 [pretomanid] , report its GRinf.
// result -0.158

###

# Tested on: Mycobacterium tuberculosis Erdman (autoluminescent)
# Experimental Protocol: total FIC50 (Loewe) at 50% inhibition, three-drug combination (log2); higher = more antagonistic
# Settings: in vitro model: acidic pH 5.7; time point: terminal (~4-5 doublings, model-specific)
Measure Name: total FIC50
// response body must contain only the number

>  <Molecule>
CC[C@@H](CO)NCCN[C@@H](CC)CO [ethambutol] + CC(=O)NC[C@H]1CN(c2ccc(N3CCOCC3)c(F)c2)C(=O)O1 [linezolid] + NC(=O)c1cnccn1 [pyrazinamide]

>  <total FIC50>
1.01

$$$$
>  <Molecule>
CC[C@@H](CO)NCCN[C@@H](CC)CO [ethambutol] + COc1c(N2C[C@@H]3CCCN[C@@H]3C2)c(F)cc2c(=O)c(C(=O)O)cn(C3CC3)c12 [moxifloxacin] + NC(=O)c1cnccn1 [pyrazinamide]

>  <total FIC50>
0.98

$$$$
>  <Molecule>
NNC(=O)c1ccncc1 [isoniazid] + O=[N+]([O-])c1cn2c(n1)OC[C@@H](OCc1ccc(OC(F)(F)F)cc1)C2 [pretomanid] + NC(=O)c1cnccn1 [pyrazinamide]

>  <total FIC50>
-0.0964

$$$$

# evaluate next
// query What value of total FIC50 has been recorded for this entry: CC[C@@H](CO)NCCN[C@@H](CC)CO [ethambutol] + COc1c(N2C[C@@H]3CCCN[C@@H]3C2)c(F)cc2c(=O)c(C(=O)O)cn(C3CC3)c12 [moxifloxacin] + CO[C@H]1/C=C/O[C@@]2(C)Oc3c(C)c(O)c4c(O)c(c(/C=N/N5CCN(C6CCCC6)CC5)c(O)c4c3C2=O)NC(=O)/C(C)=C\C=C\[C@H](C)[C@H](O)[C@@H](C)[C@@H](O)[C@@H](C)[C@H](OC(C)=O)[C@@H]1C [rifapentine]
// result 0.724

###

Measured GRinf, listed per entry.
# Tested on: Mycobacterium tuberculosis Erdman (autoluminescent)
# Experimental Protocol: GRinf, maximum normalised growth rate inhibition (unitless (-1 to 1)); higher = less effect (negative = killing)
# Settings: in vitro model: acidic pH 5.7; time point: terminal (~4-5 doublings, model-specific)

# count of solved cases: 5
>  <Molecule>
CC(=O)NC[C@H]1CN(c2ccc(N3CCOCC3)c(F)c2)C(=O)O1

>  <Assay System>
Mycobacterium tuberculosis Erdman (autoluminescent)

>  <GRinf>
-0.214

$$$$
>  <Molecule>
O=[N+]([O-])c1cn2c(n1)OC[C@@H](OCc1ccc(OC(F)(F)F)cc1)C2

>  <Assay System>
Mycobacterium tuberculosis Erdman (autoluminescent)

>  <GRinf>
-0.294

$$$$
>  <Molecule>
CO[C@H]1/C=C/O[C@@]2(C)Oc3c(C)c(O)c4c(O)c(c(/C=N/N5CCN(C)CC5)c(O)c4c3C2=O)NC(=O)/C(C)=C\C=C\[C@H](C)[C@H](O)[C@@H](C)[C@@H](O)[C@@H](C)[C@H](OC(C)=O)[C@@H]1C

>  <Assay System>
Mycobacterium tuberculosis Erdman (autoluminescent)

>  <GRinf>
-0.261

$$$$
>  <Molecule>
CC[C@@H](CO)NCCN[C@@H](CC)CO

>  <Assay System>
Mycobacterium tuberculosis Erdman (autoluminescent)

>  <GRinf>
-0.204

$$$$
>  <Molecule>
NC(=O)c1cnccn1 [pyrazinamide]

>  <Assay System>
Mycobacterium tuberculosis Erdman (autoluminescent)

>  <GRinf>
0.0463

$$$$

Then there is this molecule:
// query Lookup: GRinf / Mycobacterium tuberculosis Erdman (autoluminescent) / NNC(=O)c1ccncc1
// result -0.101
